- test.target: HLA-A*02:01
- method.summary: IEDB peptide-MHC binding, cellular MHC/competitive/fluorescence; bounds were set here for any values at or beyond the usual limits of such assays
- condition.info: source organism: Vaccinia virus WR
pIC50: −log10 of the molar value.
Please mark y if the recorded pIC50 is equal to or greater than 5, and n if it falls below.

Check if pIC50 >= 5 (inclusive). Item: LVIVSDGPPT
n

hey, is pIC50 for this one >= 5? PTNKLQAAV
y

Could you please find out whether NVVSSSTIAT has pIC50 that meets 5 or exceeds it?
n

Threshold query (pIC50 >= 5) on DIIDFLEGAL
n

Evaluate RTRLYDYFT : pIC50 at minimum 5?
n

Determine whether this sequence has pIC50 no lower than 5: PTMKIFYKHI
n

Would you say STLPNKSDVL shows pIC50 at minimum 5?
n

Item CLEAKTHFST with pIC50 of 5 or above?
n

Kindly determine if pIC50 recorded for IVARRKDQT is above or exactly 5.
n

Form field: pIC50 at least 5? Entry: SQSTDIVCET
n

Textbook exercise: given the entry QISQCQRINM , state whether its pIC50 is greater than or equal to 5.
n

Is it the case that EAAITDAAVA has pIC50 reaching or exceeding 5?
n

Determine whether this sequence has pIC50 no lower than 5: DVNSVQFSIL
y

Hello, I need to know if SANMDWRSLT has measured pIC50 not below 5. Thanks!
n

Threshold query (pIC50 >= 5) on SIPLMKRLT
n

In plain terms: is recorded pIC50 at least 5 for GIIITVGML ?
y
